system: HOP-62; test: NCI tumour cell line growth inhibition, 48 h
Activity calls are given as the source filed them. Cut-off read from the data, not from the text of the source: active = GI50 up to about 1.1 µM and inactive = higher.
I'd be grateful if you could share measured GI50 for these entries.

The cases that follow already have their GI50 on record.
Cn1c(N)nc(=O)c2c1N(C1OC(CO)C(O)C1O)CN2Cc1ccccc1 (centres undefined)    > 100 µM (inactive)
COC1(OC)CCN(Cc2ccccc2)C1=O    20.6 µM (inactive)
C[N+](C)(C)C1(C(=O)[O-])CC1    > 100 µM (inactive)
COC(=O)c1cc2c(cc1Cl)Sc1nnc(Nc3ccccc3)n1S2(=O)=O    2.15 µM (inactive)
CCOC(=O)c1nc2ccc(C(F)(F)F)cc2nc1Nc1ccc(OC)cc1    24.3 µM (inactive)
c1ccc2c(c1)c(N1CCCCC1)cc1nc3c(cc(N4CCCCC4)c4ccccc43)nc12    > 100 µM (inactive)
NC(=O)NC12CC3CC(CC(F)(C3)C1)C2    > 100 µM (inactive)
CCCCOP(=O)(OCCCC)C(NS(=O)(=O)c1ccccc1)(C(=O)OCC)C(F)(F)F (centres undefined)    22.7 µM (inactive)

Turning to the following compound.
Challenge: Give the measured GI50 of CC(CC(C)(C)[N+](C)(C)C)[N+](C)(C)C (centres undefined) .
Response given: > 100 µM (inactive)

###

I'd be grateful if you could share measured GI50 for these entries.
test system: ACHN; experiment: NCI tumour cell line growth inhibition, 48 h
The source made the active and inactive calls. Cut-off read from the data, not from the text of the source: active = GI50 up to about 1.1 µM and inactive = higher.

The cases that follow already have their GI50 on record.
Cc1ccc(-c2cc(=O)c3cc(C)c(C)c(C(=O)O)c3o2)cc1[N+](=O)[O-]    > 100 µM (inactive)
C=CCn1c(=O)c(C(=O)NC(=O)OCC)cn(C2CCCCC2)c1=O    > 100 µM (inactive)
CSc1nc2ccccc2c(=O)n1-c1cccc(C)c1    97.9 µM (inactive)
C/C=C/[C@H](O[Si](C)(C)C(C)(C)C)[C@@H](O)/C=C/C(=O)OCC    16.6 µM (inactive)

Turning to the following compound.
Challenge: Give the measured GI50 of CCC(=O)n1c(=O)n(-c2ccc([N+](=O)[O-])cc2)c(=O)n1C(=O)CC .
Response given: > 100 µM (inactive)

###

I'd be grateful if you could share measured GI50 for these entries.
tested on: MCF7; assay: NCI tumour cell line growth inhibition, 48 h
Activity calls are given as the source filed them. Rule as the data show it: active = GI50 up to about 1.1 µM and inactive = higher.

The cases that follow already have their GI50 on record.
Clc1ccc(CSCCc2ccncc2)cc1Cl    19.5 µM (inactive)
CC(=O)[C@@]1(O)CC[C@H]2[C@@H]3C[C@H](C)C4=CC(=O)C=C[C@]4(C)[C@@]3(F)[C@@H](O)C[C@@]21C [FLUOROMETHOLONE]    > 100 µM (inactive)
Nc1nc(=O)[nH]cc1F [FLUCYTOSINE]    > 100 µM (inactive)

Challenge: Give the measured GI50 of Cn1c(=O)oc2cc(C(O)CN3CCN(Cc4ccc5c(c4)OCO5)CC3)ccc21 (centres undefined) .
Response given: > 100 µM (inactive)

###

tested on: UACC-62; assay: NCI tumour cell line growth inhibition, 48 h
Activity calls are given as the source filed them. Cut-off read from the data, not from the text of the source: active = GI50 up to about 1.1 µM and inactive = higher.
parameterMeasured: GI50

O=C(NCC(O)CNC(=O)C(F)(F)F)C(F)(F)F    > 100 µM (inactive)

Provide reported GI50 for each item, in the same order as listed.
1. Nc1nc(SCc2ccccc2Cl)c2ncn(C3OC(CO)C(O)C3O)c2n1 (configuration not stated)
2. CN(C)c1ccc(C(Cc2ccccc2)C2NC(=S)NC2=O)cc1 (configuration not stated)
3. CC1CC(C)CC(NC2=NCCO2)C1 (configuration not stated)
4. c1c[nH]c(CN2CCOCC2)n1

Response given:
1: 72.3 µM (inactive); 2: 67 µM (inactive); 3: > 100 µM (inactive); 4: > 100 µM (inactive)

Provide reported GI50 for each item, in the same order as listed.
1. O=C1CS(=O)(=O)C(c2cccc(Oc3ccccc3)c2)N1C1CC1 (configuration not stated)
2. CCCCNC(=S)Nc1nc(C(=O)NNC(=S)Nc2ccccc2)cs1
3. CCN(CC)CC(C)C(=O)/C=C/c1ccc(C)cc1 (configuration not stated)
4. Nc1ccc(C(=O)N/C(=C\C=C\c2ccco2)c2nc3c(O)nc(S)nc3[nH]2)cc1
5. COc1ccc(/C(Cl)=C(\C=O)c2cc(OC)c(OC)c(OC)c2)cc1OC

Response given:
1. 31.6 µM (inactive)
2. > 100 µM (inactive)
3. 3.3 µM (inactive)
4. > 10 µM (inactive)
5. 15.7 µM (inactive)

Provide reported GI50 for each item, in the same order as listed.
1. COC(=O)[C@@]12CCCC(=O)[C@@H]1[C@H]1CCC[C@H]12
2. O=C(NCCCCCCNC(=O)n1cc(F)c(=O)[nH]c1=O)NCCCOCCOCCOCCOCCOCCOCCOCCOCCOCCOCCOCCOCCOCCOCCOCCOCCOCCOCCOCCOCCOCCCNC(=O)C(O)C(O)C(O)C(O)CO (configuration not stated)

Response given:
> 100 µM (inactive)
28.8 µM (inactive)
